Data provenance is the supplement of paper PMC6555819.

Test system: RXRa homodimer (NR concentration 180 nM)
Assay comment: PBM binding z-score (relative to random genomic background probes); higher = stronger binding; sequences stand for … in GC…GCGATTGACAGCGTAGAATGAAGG
For each of the sequences below, state its PBM binding z-score.
Answers are plain numbers.

Worked examples follow.
>>> endpoint_result("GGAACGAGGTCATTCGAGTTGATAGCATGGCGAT")
7.11
>>> endpoint_result("GCTAGTTGGTCAGTAAAAGGTGACACACCGGTCG")
0.87
>>> endpoint_result("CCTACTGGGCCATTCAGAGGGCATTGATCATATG")
0.134
>>> endpoint_result("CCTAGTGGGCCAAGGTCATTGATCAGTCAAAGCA")
3.2
>>> endpoint_result("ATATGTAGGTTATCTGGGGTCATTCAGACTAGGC")
5.88

Each sequence below has a reported value. Please supply its PBM binding z-score.
1. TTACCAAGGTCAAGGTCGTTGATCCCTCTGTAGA
2. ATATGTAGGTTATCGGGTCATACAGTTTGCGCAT
3. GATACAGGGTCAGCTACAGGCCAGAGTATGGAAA
4. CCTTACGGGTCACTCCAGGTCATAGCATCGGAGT
5. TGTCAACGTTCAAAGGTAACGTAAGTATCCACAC
6. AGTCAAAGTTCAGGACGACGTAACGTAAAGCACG

Found:
[6.84, 3.87, 4.23, 5.06, 1.27, 2.66]

Lookup: Need PBM binding z-score of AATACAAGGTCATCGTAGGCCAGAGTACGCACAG , thanks.
Found: 6.37

---

Test system: RXRa homodimer (NR concentration 180 nM)
Assay comment: PBM binding z-score (relative to random genomic background probes); higher = stronger binding; sequences stand for … in GC…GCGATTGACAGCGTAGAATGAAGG
Threshold check on PBM binding z-score: at or above 5 gives met, strictly below gives not met.

The examples below pair each entry with its known result.
>>> assigned_class("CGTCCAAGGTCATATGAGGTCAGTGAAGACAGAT")
"met"
>>> assigned_class("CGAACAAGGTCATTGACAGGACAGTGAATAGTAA")
"met"

Lookup: Test whether the sequence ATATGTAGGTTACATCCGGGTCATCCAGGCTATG records PBM binding z-score of 5 or higher.
Found: not met

Lookup: Tell me whether PBM binding z-score is at least 5 here: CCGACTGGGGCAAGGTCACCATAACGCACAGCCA
Found: not met

Lookup: Please check the record CGTCCAAGGTCATAGGGGGTCAGTGAAGACAGAT and state if its PBM binding z-score is at or above 5.
Found: met

Lookup: Check this sequence for PBM binding z-score at or above 5: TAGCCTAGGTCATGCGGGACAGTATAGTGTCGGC
Found: not met

Lookup: Is reported PBM binding z-score greater than or equal to 5 here: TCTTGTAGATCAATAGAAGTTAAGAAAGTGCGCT
Found: not met

Lookup: Tell me whether PBM binding z-score is at least 5 here: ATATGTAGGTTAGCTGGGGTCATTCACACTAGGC
Found: met

---

Test system: LXRb homodimer (NR concentration 270 nM)
Assay comment: PBM binding z-score (relative to random genomic background probes); higher = stronger binding; sequences stand for … in GC…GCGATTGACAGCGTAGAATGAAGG
Observable: PBM binding z-score
Give bare numbers.

Worked cases, PBM binding z-score given:
>>> endpoint_result("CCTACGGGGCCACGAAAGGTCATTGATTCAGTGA")
0.262
>>> endpoint_result("ATCGAAAGGTCAAAGGTGAGTATACCCACCCGAA")
4.53
>>> endpoint_result("CCTTAGGGGTCACGAGGTTATAGCACGACGAGCG")
0.631
>>> endpoint_result("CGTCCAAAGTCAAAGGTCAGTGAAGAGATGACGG")
0.637
>>> endpoint_result("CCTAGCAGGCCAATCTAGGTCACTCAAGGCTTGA")
-0.859
>>> endpoint_result("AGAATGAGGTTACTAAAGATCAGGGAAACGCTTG")
0.0247

Please state, for each entry, its recorded PBM binding z-score.
1. CCTACTGGGCCACTAAAGGTCATTGATTCAGTGA
2. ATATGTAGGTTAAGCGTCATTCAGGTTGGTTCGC
3. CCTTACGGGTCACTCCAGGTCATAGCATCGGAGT
4. CAAACAAGGTCACCGGAAGGTCAAAGTCCGCATG
5. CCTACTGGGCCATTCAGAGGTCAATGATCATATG
6. CGTCCAAGGTCAAAGGTCATTGAAGAGATGACGG

Found:
1. 1.27
2. 0.251
3. 0.548
4. 2.43
5. 0.521
6. 3.11
